# maps each entry to its IC50
biological target: human recombinant CBL-b (human Biotin CBL-b recombinant protein a.a. 39-426) (Homo sapiens); construct: human Biotin CBL-b recombinant protein a.a; 39-426; Biotin (biotinylated); assay: Biochemical assay for CBL-b inhibition (ligand displacement TR-FRET); settings: 50 nM CBL-b, 0.3 μM Bodipy FL-Probe, read-out: IC50 (CBL-b inhibition, group)
Sequence (Q13191 39-426): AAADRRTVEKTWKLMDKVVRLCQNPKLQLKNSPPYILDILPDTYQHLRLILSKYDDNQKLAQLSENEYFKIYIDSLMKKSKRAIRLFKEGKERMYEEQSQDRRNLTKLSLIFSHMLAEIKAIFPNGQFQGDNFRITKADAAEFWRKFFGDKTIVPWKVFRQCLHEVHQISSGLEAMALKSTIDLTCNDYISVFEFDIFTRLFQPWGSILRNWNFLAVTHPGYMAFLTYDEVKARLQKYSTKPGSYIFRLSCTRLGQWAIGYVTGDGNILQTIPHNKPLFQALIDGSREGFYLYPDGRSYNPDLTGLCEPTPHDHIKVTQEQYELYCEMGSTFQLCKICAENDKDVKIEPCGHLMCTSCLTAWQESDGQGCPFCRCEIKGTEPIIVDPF

Example entries begin here.
compound: Cc1cc(CNCC2CC2)cc(N2Cc3ccc(-c4ccc(F)cc4-c4nocc4C)cc3C2=O)n1
IC50: < 80 nM

compound: C[C@H]1CCCN(Cc2cc(F)cc(N3Cc4ccc(C5(Cc6nncn6C)COC5)cc4C3=O)c2)C1
IC50: < 80 nM

compound: Cn1cnnc1CC1(c2ccc3c(c2)C(=O)N(c2cc(C(=O)N4CC[C@H](O)C4)cc(C(F)(F)F)n2)C3)COC1
IC50: 300 to 5000 nM

compound: Cc1cc(C(C)NCC2CC(F)(F)C2)cc(N2Cc3ccc(-c4ccc(Cl)cc4-c4nncn4C)cc3C2=O)n1 (centres unmarked)
IC50: < 80 nM

compound: Cn1cnnc1CC1(c2ccc3c(c2)C(=O)N(c2cc(CN4CCC5(CC4)CC5)cc(C(F)(F)F)n2)C3)COC1
IC50: 80 to 300 nM

## Input Recorded IC50 for C[C@H](NC1CCCC1)c1cc(Cl)nc(N2Cc3ccc(C4(Cc5nncn5C)COC4)cc3C2=O)c1 (single isomer, unassigned) , please?
## Output < 80 nM

## Input Another compound to look at: "C=C(c1cc(C)nc(N2Cc3ccc(-c4ccc(F)cc4-c4nncn4C)cc3C2=O)c1)c1cnn(C)c1"
## Output 80 to 300 nM

## Input How about "Cc1cc(CN2CCC[C@H](C)C2)cc(N2Cc3ccc(C4(Cc5nncn5C)COC4)cc3C2=O)n1" ?
## Output < 80 nM

## Input Also "C[C@@H]1C[C@H](C)CN(Cc2cc(N3Cc4ccc(-c5ccccc5-c5nncn5C)cc4C3=O)nc(C(F)(F)F)c2)C1" ?
## Output 80 to 300 nM

## Input Same for Cc1cc(CNC(C2CC2)C(F)(F)F)cc(N2Cc3ccc(-c4ccc(F)cc4-c4nncn4C)cc3C2=O)n1 (centres unmarked)
## Output 300 to 5000 nM

## Input And the next one, "Cn1cnnc1-c1cc(Cl)ccc1-c1ccc2c(c1)C(=O)N(c1cc(CNCC3CC3)cc(Cl)n1)C2" ?
## Output < 80 nM

## Input Next entry: C[C@H](N[C@H](C)c1cc(Cl)nc(N2Cc3ccc(C4(Cc5nncn5C)COC4)cc3C2=O)c1)C1CC1 (single isomer, unassigned)
## Output < 80 nM

## Input Thanks! And "C[C@H]1CCCN(Cc2ccnc(N3Cc4ccc(C5(Cc6nncn6C)COC5)cc4C3=O)c2)C1" ?
## Output 80 to 300 nM

## Input Also "C[C@H]1CCCN(Cc2cc(N3Cc4ccc(C5(Cc6nncn6C)COC5)cc4C3=O)cc(C(F)(F)F)c2)C1" ?
## Output 80 to 300 nM

----------
target: human recombinant CBL-b (human Biotin CBL-b recombinant protein a.a. 39-426) (Homo sapiens); construct: human Biotin CBL-b recombinant protein a.a; 39-426; Biotin (biotinylated); assay: Biochemical assay for CBL-b inhibition (ligand displacement TR-FRET); details: 50 nM CBL-b, 0.3 μM Bodipy FL-Probe, read-out: IC50 (CBL-b inhibition, group)
pIC50: −log10 of the molar value.
# pIC50 per entry

compound: Cc1cccc(CNCc2cc(Cl)nc(N3Cc4ccc(C5(Cc6nncn6C)COC5)cc4C3=O)c2)n1
pIC50: 5.30 to 6.52
--
compound: Cc1cc(CN2C[C@H](C)C[C@H](C)C2)cc(N2Cc3ccc(C4(Cc5nncn5C)COC4)cc3C2=O)c1
pIC50: 6.52 to 7.10

## Input Recorded pIC50 of C[C@H]1CCCN(Cc2cc(Cl)nc(N3Cc4ccc([C@]5(Cc6nncn6C)C[C@@H](C#N)C5)cc4C3=O)c2)C1 (single isomer, unassigned) , please.
## Output > 7.10

## Input Queued: CC1CN(Cc2cc(Cl)nc(N3Cc4ccc(C5(Cc6nncn6C)COC5)cc4C3=O)c2)CCC1(F)F (stereo not shown)
## Output > 7.10

## Input What about this compound? "Cn1cc2c(n1)CCCN2Cc1cc(N2Cc3ccc(C4(Cc5nncn5C)COC4)cc3C2=O)nc(C(F)(F)F)c1"
## Output 5.30 to 6.52

## Input What about this compound? CCC(NC1CCCC1)c1cc(Cl)nc(N2Cc3ccc(C4(Cc5nncn5C)COC4)cc3C2=O)c1 (stereo not shown)
## Output > 7.10

## Input Next up: CC(NCC1CCC1)c1cc(Cl)nc(N2Cc3ccc(C4(Cc5nncn5C)COC4)cc3C2=O)c1 (single isomer, unassigned)
## Output > 7.10
